ASSAYED SYSTEM: T1, similar peptide SP-05-0001, source protein not stated peptide on HLA-A*02:01 (human)
T1 peptide: HIMEHLEGV
RUN DESCRIPTION: killing
TEST READOUT: binding result

// worked examples, binding result included
{"BINDER": "TCR-10 (TCR, V domains shown) Valpha: QNIDQPTEMTATEGAIVQINCTYQTSGFNGLFWYQQHAGEAPTFLSYNVLDGLEEKGRFSSFLSRSKGYSYLLLKELQMKDSASYLCAVPAPYTGTASKLTFGTGTRLQVTL Vbeta: GVTQTPKFQVLKTGQSMTLQCAQDMNHNSMYWYRQDPGMGLRLIYYSASEGTTDKGEVPNGYNVSRLNKREFSLRLESAAPSQTSVYFCASSEGYSTYNEQFFGPGTRLTVL", "binding result": "no recognition"}
{"BINDER": "TCR-4 (TCR, V domains shown) Valpha: QSVAQPEDQVNVAEGNPLTVKCTYSVSGNPYLFWYVQYPNRGLQFLLKYITGDNLVKGSYGFEAEFNKSQTSFHLKKPSALVSDSALYFCAAPRDDKIIFGKGTRLHILP Vbeta: GVTQTPKFRVLKTGQSMTLLCAQDMNHEYMYWYRQDPGMGLRLIHYSVGEGTTAKGEVPDGYNVSRLKKQNFLLGLESAAPSQTSVYFCASSYLRTGGNEQFFGPGTRLTVL", "binding result": "no recognition"}
{"BINDER": "TCR-2 (TCR, V domains shown) Valpha: QKITQTQPGMFVQEKEAVTLDCTYDTSDQSYGLFWYKQPSSGEMIFLIYQGSYDEQNATEGRYSLNFQKARKSANLVISASQLGDSAMYFCAMREGSDAGGTSYGKLTFGQGTILTVHP Vbeta: GVIQSPRHLIKEKRETATLKCYPIPRHDTVYWYQQGPGQDPQFLISFYEKMQSDKGSIPDRFSAQQFSDYHSELNMSSLELGDSALYFCASSPSTGRLNTEAFFGQGTRLTVV", "binding result": "no recognition"}
{"BINDER": "TCR-3 (TCR, V domains shown) Valpha: QKITQTQPGMFVQEKEAVTLDCTYDTSDQSYGLFWYKQPSSGEMIFLIYQGSYDEQNATEGRYSLNFQKARKSANLVISASQLGDSAMYFCGYSNYQLIWGAGTKLIIKP Vbeta: QVTQNPRYLITVTGKKLTVTCSQNMNHEYMSWYRQDPGLGLRQIYYSMNVEVTDKGDVPEGYKVSRKEKRNFPLILESPSPNQTSLYFCASREGTGGYQPQHFGDGTRLSIL", "binding result": "no recognition"}
{"BINDER": "TCR-11 (TCR, V domains shown) Valpha: IQVEQSPPDLILQEGANSTLRCNFSDSVNNLQWFHQNPWGQLINLFYIPSGTKQNGRLSATTVATERYSLLYISSSQTTDSGVYFCAVNTGTASKLTFGTGTRLQVTL Vbeta: GVTQTPKFQVLKTGQSMTLQCAQDMNHNSMYWYRQDPGMGLRLIYYSASEGTTDKGEVPNGYNVSRLNKREFSLRLESAAPSQTSVYFCASSPRGQGRSYEQYFGPGTRLTVT", "binding result": "no recognition"}

Shift focus to the following entry.
For the binder shown here, TCR-9 (TCR, V domains shown) Valpha: EDVEQSLFLSVREGDSSVINCTYTDSSSTYLYWYKQEPGAGLQLLTYIFSNMDMKQDQRLTVLLNKKDKHLSLRIADTQTGDSAIYFCAEKETAGNKLTFGGGTRVLVKP Vbeta: EPEVTQTPSHQVTQMGQEVILRCVPISNHLYFYWYRQILGQKVEFLVSFYNNEISEKSEIFDDQFSVERPDGSNFTLKIRSTKLEDSAMYFCASTVQSPRTNEQFFGPGTRLTVL , give the reported binding result. no recognition
